System: S.D. line male rats
Protocol notes: Antianxiety effect, water drinking under punishment (Vogel)
Format: in vivo, rat
Design: unit not given here
Applied conditions: peroral 20 mg/kg, 2.0 h after administration
Counter-ions that a name gives are not always drawn.
Measurement name: Antianxiety effect, longevity
Keep it simple and answer with nothing but the number.

For the compound shown here, O=C(NCCN1CCN(c2ncccn2)CC1)C12CC3CC(CC(C3)C1)C2 [WY-50324, reference compound] , give the reported Antianxiety effect, longevity.
24.8

For the compound shown here, Cc1cccc2c1OC(CNCCNC(=O)C13CC4CC(CC(C4)C1)C3)CO2 (stereo not shown) [Compound 1] , give the reported Antianxiety effect, longevity.
48.2

For the compound shown here, Cc1cccc2c1OC(CNCCNC(=O)C13CC4CC(CC(C4)C1)C3)CO2 (single isomer, unassigned; (-)) [Compound 7, hydrochloride] , give the reported Antianxiety effect, longevity.
51.6

For the compound shown here, O=C1CC2(CCCC2)CC(=O)N1CCNCC1COc2ccccc2O1 (stereo not shown) [MDL-73005, reference compound] , give the reported Antianxiety effect, longevity.
17.0

* * *

Examples of compounds with documented log10(IC50) follow.
Target system: serotonin 1A receptor (Rattus norvegicus)
Construct: the cortex and hippocampal tissue were extracted from the brain; from tissue; host or cells: brain cortex and hippocampus of 7-week-old male S.D. rats, washed membrane homogenate
Sequence (P19327 1-422): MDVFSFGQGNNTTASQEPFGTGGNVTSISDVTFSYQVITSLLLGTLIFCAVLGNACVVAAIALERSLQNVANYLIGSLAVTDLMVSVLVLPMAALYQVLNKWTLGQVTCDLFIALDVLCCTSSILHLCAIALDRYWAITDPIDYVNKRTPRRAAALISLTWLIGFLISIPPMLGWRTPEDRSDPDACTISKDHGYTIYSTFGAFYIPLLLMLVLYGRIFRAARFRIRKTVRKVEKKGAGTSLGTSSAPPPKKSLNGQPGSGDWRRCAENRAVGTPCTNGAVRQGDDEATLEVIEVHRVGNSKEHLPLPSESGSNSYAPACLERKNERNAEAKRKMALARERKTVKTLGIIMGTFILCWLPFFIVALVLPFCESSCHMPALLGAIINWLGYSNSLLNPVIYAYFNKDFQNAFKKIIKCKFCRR
Protocol notes: Serotonin 1A receptor binding experiment (3H-8-OH-DPAT)
Applied conditions: rat cortex and hippocampal tissue; 0.5 nM 3H-8-OH-DPAT; IC50 in M; read-out: -logIC50 5-HT1A (converted)
Plainly stated, the numbers are log10 of IC50 given in nM.

O=C(NCCNCC1COc2ccc(Cl)cc2O1)C12CC3CC(CC(C3)C1)C2 (stereo not drawn) :: 0.71
Cc1cccc2c1OC(CN(CCNC(=O)C13CC4CC(CC(C4)C1)C3)Cc1ccccc1)CO2 (stereo not drawn) :: 2.20
O=C(NCCNCC1COc2c(O)cccc2O1)C12CC3CC(CC(C3)C1)C2 (stereo not drawn) :: 0.80

For the compound shown here, COc1cccc2c1OC(CNCCNC(=O)C13CC4CC(CC(C4)C1)C3)CO2 (stereo not drawn) , give the reported log10(IC50).
-0.46

For the compound shown here, CCCN(CCNC(=O)C12CC3CC(CC(C3)C1)C2)CC1COc2cccc(C)c2O1 (stereo not drawn) , give the reported log10(IC50).
1.00

For the compound shown here, CC(=O)c1cccc2c1OC(CNCCNC(=O)C13CC4CC(CC(C4)C1)C3)CO2 (stereo not drawn) , give the reported log10(IC50).
0.50

For the compound shown here, O=C(NCCNCC1COc2cc(O)ccc2O1)C12CC3CC(CC(C3)C1)C2 (stereo not drawn) , give the reported log10(IC50).
0.40

For the compound shown here, Cc1ccc(C)c2c1OCC(CNCCNC(=O)C13CC4CC(CC(C4)C1)C3)O2 (stereo not drawn) , give the reported log10(IC50).
0.60

For the compound shown here, Cc1cccc2c1OC(CNCCNC(=O)C13CC4CC(CC(C4)C1)C3)CO2 (stereo not drawn) [Compound 1] , give the reported log10(IC50).
0.07

* * *

Examples of molecules with documented change in vivo at 20 mg/kg follow.
Test system: S.D. line male rats
Protocol notes: Antianxiety effect, water drinking under punishment (Vogel)
Format: in vivo, rat
Applied conditions: Rattus norvegicus, po; peroral 20 mg/kg; read-out: Antianxiety effect, Efficacy
Numbers only here, please. The scale is %.

Example entries and their recorded answers appear below.
O=C1C2C3CCC(C3)C2C(=O)N1CCCCN1CCN(c2ncccn2)CC1 (stereo not shown) [SM-3997, reference compound] :: 48.5
O=C(NCCNCC1COc2cc(O)ccc2O1)C12CC3CC(CC(C3)C1)C2 (stereo not shown) :: 46.5
O=C(NCCNCC1COc2cccc(O)c2O1)C12CC3CC(CC(C3)C1)C2 (stereo not shown) :: 80.1

For the molecule shown here, O=C(NCCN1CCN(c2ncccn2)CC1)C12CC3CC(CC(C3)C1)C2 [WY-50324, reference compound] , give the reported change in vivo at 20 mg/kg.
46.9

* * *

Tested on: S.D. line male rats
Protocol notes: Antianxiety effect, water drinking under punishment (Vogel)
Format: in vivo, rat
Design: unit not given here
Applied conditions: peroral 20 mg/kg, 4.0 h after administration
Structures can show the parent of a compound that is named as a salt.
Examples of compounds with documented Antianxiety effect, longevity follow.
Keep it simple and answer with nothing but the number.

Example entries and their recorded answers appear below.
O=C(NCCN1CCN(c2ncccn2)CC1)C12CC3CC(CC(C3)C1)C2 [WY-50324, reference compound] :: 11.2
Cc1cccc2c1OC(CNCCNC(=O)C13CC4CC(CC(C4)C1)C3)CO2 (single isomer, unassigned; (-)) [Compound 7, hydrochloride] :: 26.1
O=C1CC2(CCCC2)CC(=O)N1CCNCC1COc2ccccc2O1 (stereo not shown) [MDL-73005, reference compound] :: 8.1

# context switch: different compound, same Antianxiety effect, longevity
For the compound shown here, Cc1cccc2c1OC(CNCCNC(=O)C13CC4CC(CC(C4)C1)C3)CO2 (stereo not shown) [Compound 1] , give the reported Antianxiety effect, longevity.
29.5

* * *

Target system: serotonin 1A receptor (Rattus norvegicus)
Construct: the cortex and hippocampal tissue were extracted from the brain; from tissue; host or cells: brain cortex and hippocampus of 7-week-old male S.D. rats, washed membrane homogenate
Protocol notes: Serotonin 1A receptor binding experiment (3H-8-OH-DPAT)
Applied conditions: rat cortex and hippocampal tissue; 0.5 nM 3H-8-OH-DPAT; IC50 in M; read-out: -logIC50 5-HT1A (converted)
Where a name gives a salt, the structure may show the parent alone.
Lab note - cut at 4 nM for IC50: class 1 if strictly below, class 0 if not.

Cc1cccc2c1OC(CNCCNC(=O)C13CC4CC(CC(C4)C1)C3)CO2 (single isomer, unassigned; (+)) [Compound 8, hydrochloride] :: class 0
COc1ccc2c(c1)OC(CNCCNC(=O)C13CC4CC(CC(C4)C1)C3)CO2 (centres unmarked) :: class 1
O=C1CC2(CCCC2)CC(=O)N1CCNCC1COc2ccccc2O1 (centres unmarked) [MDL-73005, reference compound] :: class 0

Is the reported IC50 for Nc1ccc2c(c1)OC(CNCCNC(=O)C13CC4CC(CC(C4)C1)C3)CO2 (centres unmarked) strictly below 4 nM?
class 1

Is the reported IC50 for O=C(NCCNCC1COc2ccccc2O1)C12CC3CC(CC(C3)C1)C2 (centres unmarked) strictly below 4 nM?
class 0

Is the reported IC50 for CC(C)Cc1ccc2c(c1)OC(CNCCNC(=O)C13CC4CC(CC(C4)C1)C3)CO2 (centres unmarked) strictly below 4 nM?
class 0

* * *

Target system: serotonin 1A receptor (Rattus norvegicus)
Construct: the cortex and hippocampal tissue were extracted from the brain; from tissue; host or cells: brain cortex and hippocampus of 7-week-old male S.D. rats, washed membrane homogenate
Protocol notes: Serotonin 1A receptor binding experiment (3H-8-OH-DPAT)
Applied conditions: rat cortex and hippocampal tissue; 0.5 nM 3H-8-OH-DPAT; IC50 in M; read-out: -logIC50 5-HT1A (converted)
Counter-ions that a name gives are not always drawn.
Measurement name: IC50 (nM)
Numbers only here, please. The scale is nM.

O=C(NCCNCC1COc2ccc(O)cc2O1)C12CC3CC(CC(C3)C1)C2 (stereo not drawn) [Compound 17] :: 0.251
O=C(NCCNCC1COc2cccc(O)c2O1)C12CC3CC(CC(C3)C1)C2 (stereo not drawn) [Compound 18] :: 0.158
Cc1cccc2c1OC(CNCCNC(=O)C13CC4CC(CC(C4)C1)C3)CO2 (single isomer, unassigned; (-)) [Compound 7, hydrochloride] :: 0.316

For the compound shown here, O=C(NCCN1CCN(c2ncccn2)CC1)C12CC3CC(CC(C3)C1)C2 [WY-50324, reference compound] , give the reported IC50.
1.26

For the compound shown here, Cc1ccc2c(c1)OCC(CNCCNC(=O)C13CC4CC(CC(C4)C1)C3)O2 (stereo not drawn) [Compound 3] , give the reported IC50.
2.51
